The measured values listed here are drawn from patent US7026443.

EXPERIMENTAL SYSTEM: HLA-A*0201 (human)
COND: remark: other sources report otherwise
READOUT NAME: relative binding ratio (IC50 of standard peptide / IC50 of test peptide)
Just the number, please, no unit attached.

Sample records with relative binding ratio (IC50 of standard peptide / IC50 of test peptide):
Input ELTEVFEFA (modifications not checked) [HPV18 E6 peptide … (position 40)] . Output relative binding ratio (IC50 of standard peptide / IC50 of test peptide): 0.0012

Input QLCTELQTT (modifications not checked) [HPV16 E6 peptide … (position 21, 9 amino acids)] . Output relative binding ratio (IC50 of standard peptide / IC50 of test peptide): 0.0001

Input KLPDLCTEL (modifications not checked) [HPV45 E6 peptide … (position 13, 9 amino acids)] . Output relative binding ratio (IC50 of standard peptide / IC50 of test peptide): 0.0035

Others:
Input KLPDLCTEL (modifications not checked) [HPV18 E6 peptide … (position 13)] . Output relative binding ratio (IC50 of standard peptide / IC50 of test peptide): 0.0035
